Below, IC50 values reported for Vascular endothelial growth factor receptor 2 (Homo sapiens, UniProt P35968) across several publications.

Some compounds with recorded IC50:
Compound | IC50
Cn1cc(-c2cc(Oc3cccc(NC(=O)c4ccc5c(c4)OC(F)(F)O5)c3)ccn2)cn1 | > 10000 nM
COc1cc2nccc(Oc3ccc(NC(=S)NC4CC(O)C4)c(Cl)c3)c2cc1C(N)=O (stereo not shown) | 50 to 200 nM
COc1cc2nccc(Oc3ccc(NC(=S)NCc4ccccn4)c(Cl)c3)c2cc1C(N)=O | 200 to 1000 nM
NC(=S)N/N=C/c1cc(-c2ccc3[nH]ccc3c2)ccc1O | 20000 to 50000 nM
C=CC(=O)Nc1cc2c(Nc3ccc(Br)cc3F)ncnc2cc1OCCNC(=O)CN(CC)CC | 462 nM

Problem: For the record O=C(Nc1ccc(Oc2cc(-c3ncn[nH]3)ncn2)cc1)Nc1ccc(Cl)c(C(F)(F)F)c1 , what value of IC50 is listed for Vascular endothelial growth factor receptor 2 (Homo sapiens, UniProt P35968)?
Result: ≤ 10000 nM

Problem: For the record Cc1ccc(Oc2ccnc(NC(=O)C3CC3)c2)cc1NC(=O)Nc1ccc(Cl)c(C(F)(F)F)c1 , what value of IC50 is listed for Vascular endothelial growth factor receptor 2 (Homo sapiens, UniProt P35968)?
Result: 12.4 nM

Problem: For the record COc1cnc2[nH]cc(C(=O)c3c(F)ccc(NS(=O)(=O)c4ncn[nH]4)c3F)c2c1 , what value of IC50 is listed for Vascular endothelial growth factor receptor 2 (Homo sapiens, UniProt P35968)?
Result: ≤ 10000 nM

Problem: For the record Cn1cc(-c2cc(Oc3cccc(NC(=O)c4ccccc4C(=O)c4ccccc4)c3)ccn2)cn1 , what value of IC50 is listed for Vascular endothelial growth factor receptor 2 (Homo sapiens, UniProt P35968)?
Result: ≤ 10000 nM

Problem: For the record O=C(Nc1ccc(C(F)(F)F)cc1)Nc1ccc(Oc2ncnc3[nH]ncc23)c(F)c1 , what value of IC50 is listed for Vascular endothelial growth factor receptor 2 (Homo sapiens, UniProt P35968)?
Result: 19 nM

Problem: For the record CCCS(=O)(=O)Nc1ccc(F)c(C(=O)c2c[nH]c3ncc(OCCN4CCOCC4)cc23)c1F , what value of IC50 is listed for Vascular endothelial growth factor receptor 2 (Homo sapiens, UniProt P35968)?
Result: ≤ 10000 nM
